SUBJECT_OF_TEST: T1, human complement C3b protein (human, UniProt P01024 23-667; P01024 749-1663)
T1 construct: Purified plasma C3b (Complement Technology, Quidel); Depending on the assay it was captured by an anti-C3d antibody, coated, biotinylated or coupled to beads; also called human C3b; huC3b
METHOD_DESCRIPTION: AlphaScreen bead proximity, C3b-Acceptor beads pre-incubated with antibody, then biotinylated fB(D24G/N260D) and SA-Donor beads; blocked ligand: fB [A]
READOUT_NAME: IC50 (read off the curve)

{"BINDER": "MOR09675 IgG (antibody, V domains shown, Germlined human IgG1 with leucines 234 and 235 changed to alanines, kappa; also called antibody 9675) VH: EVQLVQSGAEVKKPGASVKVSCKASGYTFTGYYINWVRQAPGQGLEWMGIISPNQGTTGYAQKFQGRVTMTRDTSISTAYMELSSLRSEDTAVYYCARGNYDHLDYWGQGTLVTVSS VL: DIQMTQSPSSLSASVGDRVTITCRASQGISNYLNWYQQKPGKAPKLLIYDASTLQSGVPSRFSGSGSGTDFTLTISSLQPEDFATYYCQQDWHTLPVTFGQGTKVEIKR", "REPORTED_MEASUREMENT": "~0.05 nM"}
